// merged dataset of IC50 values, system = Aurora kinase A (Homo sapiens, UniProt O14965), multiple refs

Solved cases below.
- compound.structure.string: "c1cc(Nc2nccc(-c3nccs3)n2)cc(Oc2ccncc2)c1"
  IC50: "500 to 2000 nM"
- compound.structure.string: "Cc1cc(Nc2nn(-c3ccc(F)cc3)c(=O)c3ccccc23)n[nH]1"
  IC50: "1 to 100 nM"
- compound.structure.string: "O=C(c1cccc(Cl)c1F)N1CCN(Cc2cncc(Nc3cc[nH]n3)n2)CC1"
  IC50: "2.2 nM"
- compound.structure.string: "CNC(=O)[C@]1(Cc2cccc(Nc3cc[nH]n3)n2)CC[C@@H](Oc2cccc(Cl)c2F)CC1"
  IC50: "2.5 nM"
- compound.structure.string: "COc1cc2c(cc1Nc1ncc(Cl)c(Nc3cccc4c3C(=O)NC4)n1)CNCC2"
  IC50: "101 to 1000 nM"
- compound.structure.string: "CCS(=O)(=O)n1ccc2ccc(-c3nc(Nc4cc(C)[nH]n4)c4cscc4n3)cc21"
  IC50: "≤ 50 nM"
- compound.structure.string: "COc1cc(N2CCN(C)CC2)ccc1Nc1ncc(Cl)c(Nc2cccc3c2C(=O)NC3)n1"
  IC50: "11 to 100 nM"

Next compound, please.
Please report IC50 for the following compound: `Cc1cc(Nc2nn(C(C)C)c(=O)c3cc(OCCN4CCOCC4)ccc23)n[nH]1` 7 nM

* * *

// merged dataset of IC50 values, system = Aurora kinase A (Homo sapiens), multiple refs

- molecule: "O=C(c1cccc(C(F)(F)F)c1F)N1C[C@H]2C[C@@H]1CN2Cc1cncc(Nc2cc[nH]n2)n1"
  system.name: "Aurora kinase A (Homo sapiens)"
  IC50: "2.8 nM"
- molecule: "C[C@@H](c1ccccc1)n1c(=O)[nH]c2ncc(-c3cccc(CO)c3)nc21"
  system.name: "Aurora kinase A (Homo sapiens)"
  IC50: "500 to 1000 nM"
- molecule: "COc1ccc2c(c1)C(=Cc1ccc3c(/C=C/C(=O)N4CCN(C)CC4)n[nH]c3c1)C(=O)N2 (mixture of isomers)"
  system.name: "Aurora kinase A (Homo sapiens)"
  IC50: "< 5000 nM"

Please report IC50 for the following molecule: `CC(C)c1cc(-c2nc3cc4c(cc3[nH]2)NC(=O)C42CCCC2)[nH]n1` 500 to 1500 nM

* * *

// merged dataset of IC50 values, system = Aurora kinase A (Homo sapiens), multiple refs

Solved cases below.
- compound: "COc1cc2c(Oc3ccc(NC(=O)c4ccccc4)cc3)ccnc2cc1OCC[C@H](N)C(=O)O"
  system.name: "Aurora kinase A (Homo sapiens)"
  IC50: "< 2000 nM"
- compound: "NC(=O)C(=C1Nc2ccccc2S1)c1ncc(C(=O)O)c(C(F)(F)F)n1 (single isomer, unassigned)"
  system.name: "Aurora kinase A (Homo sapiens)"
  IC50: "20 nM"
- compound: "N#Cc1ccc2c(c1)C(=Cc1ccc3c(/C=C/c4ccncc4)n[nH]c3c1)C(=O)N2 (mixture of isomers)"
  system.name: "Aurora kinase A (Homo sapiens)"
  IC50: "< 5000 nM"
- compound: "O=C1NCc2cccc(Nc3nc(Nc4ccc(N5C[C@H]6C[C@@H]5CN6)cc4OC(F)F)ncc3C(F)(F)F)c21"
  system.name: "Aurora kinase A (Homo sapiens)"
  IC50: "101 to 1000 nM"
- compound: "O=[N+]([O-])c1ccccc1COc1cccc(Nc2nccc(-c3nccs3)n2)c1"
  system.name: "Aurora kinase A (Homo sapiens)"
  IC50: "> 2000 nM"
- compound: "O=C(O)CCc1c(/C=C2\\C(=O)Nc3cc(-c4ccc(O)c(O)c4)ccc32)[nH]c2c1C(=O)CCC2"
  system.name: "Aurora kinase A (Homo sapiens)"
  IC50: "46.1 nM"
- compound: "O=[N+]([O-])c1cccc(Nc2nccc(-c3ccc(CCn4cncn4)cc3)n2)c1"
  system.name: "Aurora kinase A (Homo sapiens)"
  IC50: "340 nM"
- compound: "Cc1c(-c2ccnc(Nc3ccc(-n4cncn4)cc3)n2)c(C)n2c1C(=O)NCC2"
  system.name: "Aurora kinase A (Homo sapiens)"
  IC50: "< 1000 nM"

Lab note: Aurora kinase A (Homo sapiens) assay, enter IC50 for `CN(C)CCNC(=O)c1ccc(Nc2ncc(Cl)c(Nc3ccccc3NC(=O)C3CC3)n2)cc1` here 2.5 nM

Lab note: Aurora kinase A (Homo sapiens) assay, enter IC50 for `CN1CCN(C2CCN(c3ccc(Nc4ncc(C(F)(F)F)c(Nc5cccc6c5C(=O)NC6)n4)c(OC(F)F)c3)CC2)CC1` here 101 to 1000 nM

Lab note: Aurora kinase A (Homo sapiens) assay, enter IC50 for CCC1C(=O)Nc2cc3nc(-c4[nH]nc5ccccc45)[nH]c3cc21 (stereo not drawn) here 100 to 250 nM
